Overview of recorded growth inhibition for various compounds
Test: NCI Yeast Anticancer Drug Screen. Data for the bub3 strain (AID 167)
Conditions: S. cerevisiae bub3 mutant strain, at 5.0 µM (retest, dose inferred, filed as 0.5), stronger effect = higher value
About 79,000 compounds went through this panel and 15% of them were active in at least one assay; those are over-represented in the sample as a whole.
Quick reminder: number only, in %, skip the unit.

> print(dat)
                                   compound      readout.label  numeric.value
1                   CC(C)(C)N=C(NO)c1ccccc1  growth inhibition            -11
2  COC(=O)C1(C)CCc2c(ccc3ccccc23)C1=O (stereo unspecified)  growth inhibition             40
3        O=C1C=C(Cl)C(=O)C(c2ccc(Cl)cc2)=C1  growth inhibition              6
4             Brc1ccccc1-c1ncc(-c2ccccc2)o1  growth inhibition             40
5     COc1cc(O)c2c(c1O)C(=O)c1cc(C)ncc1C2=O  growth inhibition              5
6  CCCC/C([O-])=C1/C(=O)N(c2ccccc2)N=C1C.CCCC/C([O-])=C1/C(=O)N(c2ccccc2)N=C1C.[Cu+2]  growth inhibition             26

// below: growth inhibition requested for another compound
# input So what does the record say about growth inhibition for CN(C)c1ccc(C2CC(C)(O)Oc3cc4c(cc32)OCO4)cc1 (stereo unspecified) ?
# output 18
